TGT: UniProtKB Q4U254
Sequence (Q4U254 whole entry): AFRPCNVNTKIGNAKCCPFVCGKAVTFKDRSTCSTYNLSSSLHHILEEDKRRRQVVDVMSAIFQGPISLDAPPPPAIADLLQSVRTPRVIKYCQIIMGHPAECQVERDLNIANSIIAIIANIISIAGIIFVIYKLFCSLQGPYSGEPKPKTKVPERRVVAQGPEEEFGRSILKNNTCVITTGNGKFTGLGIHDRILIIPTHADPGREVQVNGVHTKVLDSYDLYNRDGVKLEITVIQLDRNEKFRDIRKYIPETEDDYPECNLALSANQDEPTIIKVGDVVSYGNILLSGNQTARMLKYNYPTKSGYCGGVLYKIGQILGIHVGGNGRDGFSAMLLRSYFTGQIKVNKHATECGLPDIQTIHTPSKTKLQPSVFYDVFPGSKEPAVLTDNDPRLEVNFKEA
PROTOCOL_SUMMARY: The compound was tested for reversible inhibition of Human Rhinovirus (HRV) 3C Protease.
MEASUREMENT_NAME: pKi
Here pKi is given on a logarithmic scale as minus log10 of the concentration in mol/L.

// query Give recorded pKi with UniProtKB Q4U254 for the following molecule: CCOC(=O)/C(C#N)=C/c1cccc(C(N)=O)c1
// result 5.82

Hello, the source for this data is ChEMBL document CHEMBL1132923, in case you need it.
